Data origin: the RNAGym collection of RNA variant scans (doi:10.1073/pnas.2313332121)

# Lookup of reported polymerase ribozyme fitness (log ratio) keyed by entry
B1: TPR 5TU (parent)
chain: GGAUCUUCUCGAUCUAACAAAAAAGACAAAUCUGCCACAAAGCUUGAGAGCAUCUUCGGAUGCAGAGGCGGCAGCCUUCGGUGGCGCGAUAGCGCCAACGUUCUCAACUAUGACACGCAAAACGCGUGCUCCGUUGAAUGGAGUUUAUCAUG

# Variants of: B1
# Assay text: polymerase ribozyme fitness, log enrichment relative to wild type (log ratio); higher = more active; in vitro selection for triplet polymerase activity
Variants at the floor of the assay were thinned out.

Mutant code	polymerase ribozyme fitness (log ratio)
U53A C76A G84C A122U	≤ -4.2
C85U G94C G143A	-1.78
A22U U56A A106U A107C A142G	≤ -4.2
C35G G71A C96G U139G	-3.91
A52U U77G G84C G128A G143A	≤ -4.2
C5A C54A C57A G58A G68A A89U C95G	≤ -4.2
U31G A52C A64U C75G U90C C99U U134G	≤ -4.2
C8U A26U U44A C85U A115U C118A G133U	≤ -4.2
U101C	0.385
C32G C35U C72G A106C	≤ -4.2
C54U C85G C93U A97C A137U U139G	≤ -4.2
G59C A60U	0.153
U31C C36G U56A G70C G94A C129G	-3
